# tested on: B-Raf kinase (Homo sapiens)
# Construct: GST (N); purchased Sigma
# Sequence (P15056 416-766): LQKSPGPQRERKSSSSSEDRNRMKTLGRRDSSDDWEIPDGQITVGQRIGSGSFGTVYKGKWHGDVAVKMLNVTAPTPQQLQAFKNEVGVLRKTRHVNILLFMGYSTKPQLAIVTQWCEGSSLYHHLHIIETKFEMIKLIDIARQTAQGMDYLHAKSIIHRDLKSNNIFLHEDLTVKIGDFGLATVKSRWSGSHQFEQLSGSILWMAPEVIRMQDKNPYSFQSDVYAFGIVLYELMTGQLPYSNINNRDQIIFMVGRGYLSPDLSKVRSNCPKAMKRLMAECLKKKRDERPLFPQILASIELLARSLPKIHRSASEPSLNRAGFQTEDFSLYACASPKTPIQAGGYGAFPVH
# test protocol: Biochemical assay for B-Raf.1 (coupled pyruvate kinase/lactate dehydrogenase)
# conditions used: read-out: BRAF.1 IC50
assay metric: IC50

Use these answered entries as a reference point.
>>> result("COC(=O)Nc1cc(-c2cc(-c3cc(NC(=O)N[C@H]4C[C@](C)(F)C4)cnc3C)cc(OCCO)n2)ccn1")
"≤ 100 nM"
>>> result("Cc1cc(F)c(NC(=O)N2CCC(C)(C#N)CC2)cc1-c1cc(OCCO)nc(-c2ccnc3[nH]ncc23)c1")
"500 to 1000 nM"
>>> result("COC(=O)Nc1cc(-c2ccnc(-c3cc(NC(=O)NCCC(C)(C)OC)c(F)cc3C)n2)ccn1")
"≤ 100 nM"
>>> result("COC(=O)Nc1cc(-c2cc(-c3cc(NC(=O)NCCC4(C)CC4)ccc3F)cc(OCCO)n2)ccn1")
"≤ 100 nM"
>>> result("CCNC(=O)Nc1cc(-c2cc(OCCO)nc(-c3ccnc(NC(=O)C4CC4)c3)c2)c(C)cc1F")
"100 to 500 nM"

Could I get IC50 for every one of these entries?
1. COC(C)(C)CCNC(=O)Nc1cc(-c2cnnc(-c3ccnc(NC(=O)C4CC4)c3)c2)c(C)cc1F
2. Cc1ccc(NC(=O)N2CC[C@H](C(F)(F)F)C2)cc1-c1cncc(-c2cc(NC(=O)C3CC3)ncn2)c1

Reply:
["≤ 100 nM", "≤ 100 nM"]
